Test system: Escherichia coli TOP10;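 further: peptides expressed intracellularly from a pBAD plasmid library in pooled LB shake-flask culture, induced with 0.3% L-arabinose, DNA abundance read by NGS, three biological replicates, DESeq2 with apeglm shrinkage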
test.description: shrunken log2 fold change of peptide-encoding DNA abundance (4.5 h post-induction vs induction); higher = less antimicrobial activity (less host growth inhibition)
test.conditions: time post-induction: 4.5 h; library: site-saturation at positions 5, 18, 19, 20
# cutoff 0.04 applies to shrunken log2 fold change; >= gives TRUE, < gives FALSE

Query :: Is shrunken log2 fold change for RRIRARPPRLPRPRPRPQLQPRP at or above 0.04?
Result :: TRUE

Query :: Is shrunken log2 fold change for RRIRYRPPRLPRPRPRPLPDPRP at or above 0.04?
Result :: FALSE

Query :: Is shrunken log2 fold change for RRIRERPPRLPRPRPRPKFTPRP at or above 0.04?
Result :: FALSE

Query :: Is shrunken log2 fold change for RRIRDRPPRLPRPRPRPFRLPRP at or above 0.04?
Result :: FALSE

Query :: Is shrunken log2 fold change for RRIRERPPRLPRPRPRPTPTPRP at or above 0.04?
Result :: TRUE

Query :: Is shrunken log2 fold change for RRIRKRPPRLPRPRPRPIGRPRP at or above 0.04?
Result :: FALSE

Query :: Is shrunken log2 fold change for RRIRHRPPRLPRPRPRPPAAPRP at or above 0.04?
Result :: TRUE

Query :: Is shrunken log2 fold change for RRIRMRPPRLPRPRPRPSYSPRP at or above 0.04?
Result :: FALSE

Query :: Is shrunken log2 fold change for RRIRKRPPRLPRPRPRPEWTPRP at or above 0.04?
Result :: FALSE

Query :: Is shrunken log2 fold change for RRIRHRPPRLPRPRPRPIGTPRP at or above 0.04?
Result :: FALSE

Query :: Is shrunken log2 fold change for RRIRDRPPRLPRPRPRPMCKPRP at or above 0.04?
Result :: TRUE

Query :: Is shrunken log2 fold change for RRIRERPPRLPRPRPRPPYNPRP at or above 0.04?
Result :: FALSE

Query :: Is shrunken log2 fold change for RRIRKRPPRLPRPRPRPFQAPRP at or above 0.04?
Result :: TRUE

Query :: Is shrunken log2 fold change for RRIRYRPPRLPRPRPRPCPNPRP at or above 0.04?
Result :: TRUE

Query :: Is shrunken log2 fold change for RRIRKRPPRLPRPRPRPWRFPRP at or above 0.04?
Result :: TRUE

Query :: Is shrunken log2 fold change for RRIRARPPRLPRPRPRPQARPRP at or above 0.04?
Result :: TRUE

Query :: Is shrunken log2 fold change for RRIRARPPRLPRPRPRPGVRPRP at or above 0.04?
Result :: TRUE

Query :: Is shrunken log2 fold change for RRIRIRPPRLPRPRPRPRGPPRP at or above 0.04?
Result :: TRUE

Query :: Is shrunken log2 fold change for RRIRYRPPRLPRPRPRPAENPRP at or above 0.04?
Result :: FALSE

Query :: Is shrunken log2 fold change for RRIRPRPPRLPRPRPRPHRWPRP at or above 0.04?
Result :: TRUE

Query :: Is shrunken log2 fold change for RRIRTRPPRLPRPRPRPEFYPRP at or above 0.04?
Result :: FALSE

Query :: Is shrunken log2 fold change for RRIRIRPPRLPRPRPRPTAVPRP at or above 0.04?
Result :: FALSE

Query :: Is shrunken log2 fold change for RRIRNRPPRLPRPRPRPAPVPRP at or above 0.04?
Result :: TRUE

Values from the supplement of paper PMC9112550
